For each of the compounds below, state its pKi.
Numbered stars: 1 amine (or outer) side, 2 acyl side, 3 side chain; on linkers, the order of the positions; unused ones are H or OH. Square brackets hold non-standard residues; d marks the D form. Peptide text beside a SMILES is read from it. * marks the point of attachment. X2 = CC(C)C[C@H](N[*:1])[C@@H](O)C(F)(F)C(=O)[*:2]; X1 = CC(C)C[C@H](N[*:1])C(=O)C(F)(F)C(=O)[*:2]; X3 = CC(C)C[C@H](N[*:1])C(=O)CC(=O)[*:2]; Sta = CC(C)C[C@H](N)[C@@H](O)CC(=O)O; Boc = CC(C)(C)OC(=O)*
The meaning of pKi here: minus log10 of the concentration in molar units.

Give pKi for this entry on Renin (Homo sapiens): CC(C)C[C@H](NC(=O)C[C@H](O)[C@H](CC(C)C)NC(=O)[C@H](Cc1ccccc1)NC(=O)[C@H](Cc1ccccc1)NC(=O)OC(C)(C)C)C(=O)N[C@@H](Cc1ccccc1)C(N)=O (Boc-FF[Sta]LF-NH2)
Sequence (P00797 whole entry): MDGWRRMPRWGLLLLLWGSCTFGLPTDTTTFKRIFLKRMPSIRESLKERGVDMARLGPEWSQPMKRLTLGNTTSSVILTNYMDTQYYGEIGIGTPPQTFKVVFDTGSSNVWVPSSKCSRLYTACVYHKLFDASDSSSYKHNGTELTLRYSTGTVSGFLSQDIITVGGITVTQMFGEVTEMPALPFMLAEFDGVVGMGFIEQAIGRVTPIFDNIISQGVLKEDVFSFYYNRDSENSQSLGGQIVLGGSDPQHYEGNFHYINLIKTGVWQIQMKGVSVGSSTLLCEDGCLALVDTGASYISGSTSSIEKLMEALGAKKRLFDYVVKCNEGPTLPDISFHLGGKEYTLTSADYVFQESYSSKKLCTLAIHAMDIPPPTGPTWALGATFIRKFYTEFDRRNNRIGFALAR
7.28

Give pKi for this entry on Renin (Homo sapiens): COC(=O)[C@@H](/C=C/[C@H](CC(C)C)NC(=O)C(F)(F)C(=O)[C@H](CC(C)C)NC(=O)[C@H](Cc1ccccc1)NC(=O)[C@H](Cc1ccccc1)NC(=O)OC(C)(C)C)Cc1ccccc1
5.92

Give pKi for this entry on Renin (Homo sapiens): CC(C)C[C@H](NC(=O)C(F)(F)[C@H](O)[C@H](CC(C)C)NC(=O)[C@@H](/C=C/[C@H](Cc1ccccc1)NC(=O)OC(C)(C)C)Cc1ccccc1)C(=O)N[C@@H](Cc1ccccc1)C(N)=O
4.92

Give pKi for this entry on Renin (Homo sapiens): CC(C)C[C@H](NC(=O)C(F)(F)C(=O)[C@H](CC(C)C)NC(=O)[C@H](Cc1ccccc1)NC(=O)[C@H](Cc1ccccc1)NC(=O)OC(C)(C)C)C(=O)N[C@@H](Cc1ccccc1)C(N)=O (Boc-FF[X1]LF-NH2)
8.15

Give pKi for this entry on Renin (Homo sapiens): CC(C)C[C@H](NC(=O)C(F)(F)[C@H](O)[C@H](CC(C)C)NC(=O)[C@H](Cc1ccccc1)NC(=O)[C@H](Cc1ccccc1)NC(=O)OC(C)(C)C)C(=O)N[C@@H](Cc1ccccc1)C(N)=O (Boc-FF[X2]LF-NH2)
6.92

Give pKi for this entry on Renin (Homo sapiens): CC(C)C[C@H](NC(=O)[C@H](Cc1ccccc1)NC(=O)[C@H](Cc1ccccc1)NC(=O)OC(C)(C)C)C(=O)CC(=O)N[C@@H](CC(C)C)C(=O)N[C@@H](Cc1ccccc1)C(N)=O (Boc-FF[X3]LF-NH2)
6.81
